# testSystem: SARS-CoV-2 Spike RBD-His Tag, Sino Biological (SARS-CoV-2)
Hi there, I'd appreciate the recorded xmid (log10) for every entry that follows.
One number for each entry.

As a guide, the following entries are already answered.
>  <binder>
vhh_tstrep_sars2_pjl1_L_85 (VHH) VHH: QVQLQESGGGLVQAGGSLRLSCAASGRTFSEYAMGWFRQAPGKEREFVATISWSGGATYYTDSVKGRFTISRDNAKNTVYLQMNSLKPDDTAVYYCAAAGLETVVSEWDYDYDYWGQGTQVTVSS

>  <quantitativeReadout>
-1.05

$$$$
>  <binder>
vhh_tstrep_sars2_pjl1_L_81 (VHH) VHH: QVQLQESGGGLVQAGGSLRLSCAASGRTFSEYAMGWFRQAPGKEREFVATISWSGGATYYTDSVKGRFTISRDNAKNTVYLQMNSLKPDDTAVYYCAAARLGTVVSEWDYDYDYWGQGTQVTVSS

>  <quantitativeReadout>
0.479

$$$$
>  <binder>
vhh_tstrep_sars2_pjl1_L_80 (VHH) VHH: QVQLQESGGGLVQAGGSLRLSCAASGRTFSEYAMGWFRQAPGKEREFVATISWSGGATYYTRSVKGRFTISRDNAKNTVYLQMNSLKPDDTAVYYCAAAGLGTVVSEWDYDYDYWGQGTQVTVSS

>  <quantitativeReadout>
-0.743

$$$$

Let us move to another entry and its xmid (log10).
get_value(item= vhh_tstrep_sars2_pjl1_L_82 (VHH) VHH: QVQLQESGGGLVQAGGSLRLSCAASGRTFSEYAMGWFRQAPGKEREFVATISWSGGATYYTDSVKGRFTISRDNAKNTVYLQMNSLKPDDTAVYYCAAAELGTVVSEWDYDYDYWGQGTQVTVSS , readout=xmid (log10)) returns 0.155
